- measured_target: chymotrypsin (Bos taurus)
- test_name: chymotrypsin inhibitory effect (procedure of Muramatsu et al; acetyl-L-tyrosine ethyl ester substrate, Hestrin colour development)
- Type: biochemical
- reported_conditions: 10 min preincubation; 25 mM acetyl-L-tyrosine ethyl ester; 0.1M Tris-HCl pH 8.0; 37° C., 30 min; absorbance 530 nm; read-out: Inhibitory Activity [50% Inhibitory Concentration (M)]
result_type: IC50 (M)
Give the value in M but do not write M after it.

// IC50 lookup, molecule = CN1CCN(C(=O)C=Cc2ccc(OC(=O)C3CCCc4ccccc43)cc2)CC1 (centres unmarked) , result: 6e-07

Short answer for CC(C)N1CCN(CCNC(=O)c2ccc(OC(=O)C3CCCc4ccccc43)cc2)CC1 (centres unmarked) : IC50 was 7e-07

Just so you know, measured IC50 for CC(C)N1CCN(CC(=O)Nc2ccc(OC(=O)C3CCCc4ccccc43)cc2)CC1 (centres unmarked) came out at 4e-06

The recorded IC50 for CC(C)N1CCN(C(=O)COC(=O)c2ccc(OC(=O)C3CCCc4ccccc43)cc2)CC1 (centres unmarked) is 3e-08

IC50 recorded for this molecule, CC(C)N1CCN(C(=O)C=Cc2ccc(OC(=O)C3CCCc4ccccc43)cc2)CC1 (centres unmarked) , is 3e-06
